Hi there, I'd appreciate the recorded pIC50 for every entry that follows.
Biological target: PTP EPSILON (Homo sapiens, UniProt P23469)
Construct: made in house; host or cells: Sf-9 insect cells (pFastBac-G2T); a pGEX 6P-1 construct also existed
Sequence (P23469 80-393 limits assumed): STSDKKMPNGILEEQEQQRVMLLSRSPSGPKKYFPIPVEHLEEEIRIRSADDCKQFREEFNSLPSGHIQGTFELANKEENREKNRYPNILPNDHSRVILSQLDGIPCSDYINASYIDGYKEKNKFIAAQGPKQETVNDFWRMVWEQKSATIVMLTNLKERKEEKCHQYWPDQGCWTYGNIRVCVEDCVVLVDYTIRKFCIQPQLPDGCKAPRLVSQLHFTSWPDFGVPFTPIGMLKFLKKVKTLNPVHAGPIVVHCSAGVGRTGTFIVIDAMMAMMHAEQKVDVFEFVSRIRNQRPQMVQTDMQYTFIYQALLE
Test: PTP IC50 assay, fluorescent substrate DiFMUP
Format: biochemical
Conditions: DiFMUP as substrate, 25° C.; read-out: PTP IC50 Epilson
Procedure: The PTPepsilon cDNA was amplified from human placenta single-strand cDNA (Clontech RNA) using the following oligonucleotides: 5′oligo: 5′-[…]-3′ (SEQ ID NO: 6) 3′oligo: 5′-[…]-3′ (SEQ ID NO: 7) After cloning this PCR product into the Bam HI/Xho I sites of pGEX 6P-1, this phosphatase was subcloned using the same restriction sites in pFastBac-G2T. […] All assays were performed using DiFMUP as substrate. The optimum pH and substrate Km was determined for each PTP used. […]
Give bare numbers, as −log10 of the molar value.

Here is how some compounds turned out for pIC50.
INSERT INTO results (compound, assay_endpoint, readout_value) VALUES
  ('O=C(Cc1cccc(CC(=O)Nc2ccc(S(=O)(=O)C(F)(F)F)cc2)c1)Nc1ccc(S(=O)(=O)C(F)(F)F)cc1', 'pIC50', 4.69),
  ('O=C(O)c1ccc(OCCOc2ccc(S(=O)(=O)C(F)(F)F)cc2[N+](=O)[O-])cc1', 'pIC50', 4.65),
  ('CCn1c(-c2ccc(C(=O)Nc3ccc(OC)cc3)cc2)nc2cc(S(=O)(=O)C(F)(F)F)ccc21', 'pIC50', 5.29),
  ('CCCCN(C(=O)c1ccccc1)C(C(=O)NCC(=O)OC)c1ccc(S(=O)(=O)C(F)(F)F)cc1 (stereo not shown)', 'pIC50', 4.27),
  ('O=C(O)c1cc2cc(NS(=O)(=O)C(F)(F)F)ccc2n1Cc1ccccc1', 'pIC50', 4.91),
  ('O=[N+]([O-])c1ccc(NCC(O)COc2ccc(S(=O)(=O)C(F)(F)F)cc2[N+](=O)[O-])cc1 (stereo not shown)', 'pIC50', 4.29);

Field: pIC50. Fill in for each record below.
1. CCOC(=O)c1cc2cc(N(S(=O)(=O)C(F)(F)F)S(=O)(=O)C(F)(F)F)ccc2n1CC(=O)OC(C)(C)C
2. NS(=O)(=O)c1ccc(NCC(COc2ccc(S(=O)(=O)C(F)(F)F)cc2[N+](=O)[O-])Oc2ccc(S(=O)(=O)C(F)(F)F)cc2[N+](=O)[O-])cc1 (stereo not shown)
3. CN(Cc1ccc2cc(C(=O)O)ccc2c1)S(=O)(=O)C(F)(F)F
4. CC(C)(C)OC(=O)Cn1c(C(=O)O)cc2cc(NS(=O)(=O)C(F)(F)F)ccc21
5. O=C(Cc1ccc(CC(=O)Nc2ccc(S(=O)(=O)C(F)(F)F)cc2)cc1)Nc1ccc(S(=O)(=O)C(F)(F)F)cc1
6. O=C(Nc1ccccc1)c1cc2cc(NS(=O)(=O)C(F)(F)F)ccc2[nH]1
7. CCNC(=O)c1ccc(-c2nc3cc(S(=O)(=O)C(F)(F)F)ccc3n2CC)cc1

4.56
5.24
5.29
4.51
5.04
5.36
4.87

* * *

Biological target: PTP ALPHA (Homo sapiens)
Construct: RTPα intracellular domain construct was obtained
Assay: PTP IC50 assay, pNPP or FDP as substrate
Conditions: 25° C.
pIC50: −log10 of the molar value.
Hi there, I'd appreciate the recorded pIC50 for every entry that follows.

Here is how some compounds turned out for pIC50.
INSERT INTO results (chemical_smiles, readout_value) VALUES
  ('O=S(=O)(c1ccc(CCc2ccc(S(=O)(=O)C(F)(F)F)cc2)cc1)C(F)(F)F', '< 4.00'),
  ('O=C(Cc1ccccc1CC(=O)Nc1cccc(S(=O)(=O)C(F)(F)F)c1)Nc1cccc(S(=O)(=O)C(F)(F)F)c1', '< 4.00');

Turning now to a further record.
Lab request: please report pIC50 under test system PTP ALPHA (Homo sapiens) for O=C(Cc1ccc(CC(=O)Nc2cccc(S(=O)(=O)C(F)(F)F)c2)cc1)Nc1cccc(S(=O)(=O)C(F)(F)F)c1 < 4.00
